# IL-9 secretion, CD8 T cells, at 0.1 µM annotations
- System Under Test: T1, IL10Rα/IL2Rγ receptor (human) (UniProt Q13651)
- T1 sequence (looked up) 1: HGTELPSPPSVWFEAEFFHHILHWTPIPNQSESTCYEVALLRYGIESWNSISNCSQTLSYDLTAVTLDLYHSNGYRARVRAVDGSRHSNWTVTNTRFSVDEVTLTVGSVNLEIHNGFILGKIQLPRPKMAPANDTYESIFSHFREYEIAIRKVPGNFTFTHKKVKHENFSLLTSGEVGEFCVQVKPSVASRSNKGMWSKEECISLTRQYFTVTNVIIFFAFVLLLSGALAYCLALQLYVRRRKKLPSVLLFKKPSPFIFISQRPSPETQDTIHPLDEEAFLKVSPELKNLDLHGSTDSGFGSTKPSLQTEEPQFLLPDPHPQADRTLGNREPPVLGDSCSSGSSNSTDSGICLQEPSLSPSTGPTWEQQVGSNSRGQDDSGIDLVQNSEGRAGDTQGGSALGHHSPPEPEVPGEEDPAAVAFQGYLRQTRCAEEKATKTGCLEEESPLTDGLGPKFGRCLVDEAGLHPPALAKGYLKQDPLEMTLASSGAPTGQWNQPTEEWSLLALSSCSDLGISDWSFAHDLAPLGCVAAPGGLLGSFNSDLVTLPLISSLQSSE
- T1 sequence (looked up) 2: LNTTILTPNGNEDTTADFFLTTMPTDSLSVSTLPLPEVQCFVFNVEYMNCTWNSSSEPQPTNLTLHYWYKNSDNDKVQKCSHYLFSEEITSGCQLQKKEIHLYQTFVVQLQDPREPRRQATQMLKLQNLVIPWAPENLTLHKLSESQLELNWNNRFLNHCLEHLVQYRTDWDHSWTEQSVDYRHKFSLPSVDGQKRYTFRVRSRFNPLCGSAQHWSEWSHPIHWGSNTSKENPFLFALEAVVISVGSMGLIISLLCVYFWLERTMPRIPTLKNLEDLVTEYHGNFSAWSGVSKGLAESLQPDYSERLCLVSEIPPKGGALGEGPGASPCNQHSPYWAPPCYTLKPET
- Test Details: cell-based or functional assay
# number only, unit pg/mL dropped from output

Some binders with known IL-9 secretion, CD8 T cells, at 0.1 µM results, for comparison:
Binder	IL-9 secretion, CD8 T cells, at 0.1 µM (pg/mL)
hIL10Ra_VHH14 - hIL2Rg_VHH19, linker GGGS, tag his (bispecific antibody, not shown: small tags and cut ends) QVQLQESGGGSVQAGGSLRLSCGASGYTYSSYCMGWFRQVPGKEREGVAVIDSDGSTSYADSVKGRFTISKDNGKNTLYLQMNSLKPEDTAMYYCAADLGHYRPPCGVLYLGMDYWGKGTQVTVSSGGGSQVQLQESGGGSVQAGGSLRLSCTASGFTFDDREMNWYRQAPGNECELVSTISSDGSTYYADSVKGRFTISQDNAKNTVYLQMDSVKPEDTAVYYCAADFMIAIQAPGAGCWGQGTQVTVSS	1340
hIL10Ra_VHH14 - hIL2Rg_VHH19, No linker, tag his (bispecific antibody, not shown: small tags and cut ends) QVQLQESGGGSVQAGGSLRLSCGASGYTYSSYCMGWFRQVPGKEREGVAVIDSDGSTSYADSVKGRFTISKDNGKNTLYLQMNSLKPEDTAMYYCAADLGHYRPPCGVLYLGMDYWGKGTQVTVSSQVQLQESGGGSVQAGGSLRLSCTASGFTFDDREMNWYRQAPGNECELVSTISSDGSTYYADSVKGRFTISQDNAKNTVYLQMDSVKPEDTAVYYCAADFMIAIQAPGAGCWGQGTQVTVSS	1070
hIL10Ra_VHH14 - hIL2Rg_VHH19, linker GGSGGS, tag his (bispecific antibody, not shown: small tags and cut ends) QVQLQESGGGSVQAGGSLRLSCGASGYTYSSYCMGWFRQVPGKEREGVAVIDSDGSTSYADSVKGRFTISKDNGKNTLYLQMNSLKPEDTAMYYCAADLGHYRPPCGVLYLGMDYWGKGTQVTVSSGGSGGSQVQLQESGGGSVQAGGSLRLSCTASGFTFDDREMNWYRQAPGNECELVSTISSDGSTYYADSVKGRFTISQDNAKNTVYLQMDSVKPEDTAVYYCAADFMIAIQAPGAGCWGQGTQVTVSS	1090

q: IL-9 secretion, CD8 T cells, at 0.1 µM lookup needed for hIL10Ra_VHH14 - hIL2Rg_VHH19, linker …, tag his (bispecific antibody, not shown: small tags and cut ends) QVQLQESGGGSVQAGGSLRLSCGASGYTYSSYCMGWFRQVPGKEREGVAVIDSDGSTSYADSVKGRFTISKDNGKNTLYLQMNSLKPEDTAMYYCAADLGHYRPPCGVLYLGMDYWGKGTQVTVSSGGSGGSGGSGQVQLQESGGGSVQAGGSLRLSCTASGFTFDDREMNWYRQAPGNECELVSTISSDGSTYYADSVKGRFTISQDNAKNTVYLQMDSVKPEDTAVYYCAADFMIAIQAPGAGCWGQGTQVTVSS , thanks.
a: 1450

q: IL-9 secretion, CD8 T cells, at 0.1 µM lookup needed for hIL10Ra_VHH14 - hIL2Rg_VHH19, linker GGGSGGGS, tag his (bispecific antibody, not shown: small tags and cut ends) QVQLQESGGGSVQAGGSLRLSCGASGYTYSSYCMGWFRQVPGKEREGVAVIDSDGSTSYADSVKGRFTISKDNGKNTLYLQMNSLKPEDTAMYYCAADLGHYRPPCGVLYLGMDYWGKGTQVTVSSGGGSGGGSQVQLQESGGGSVQAGGSLRLSCTASGFTFDDREMNWYRQAPGNECELVSTISSDGSTYYADSVKGRFTISQDNAKNTVYLQMDSVKPEDTAVYYCAADFMIAIQAPGAGCWGQGTQVTVSS , thanks.
a: 1300
